B1: LINE1-full (parent)
chain: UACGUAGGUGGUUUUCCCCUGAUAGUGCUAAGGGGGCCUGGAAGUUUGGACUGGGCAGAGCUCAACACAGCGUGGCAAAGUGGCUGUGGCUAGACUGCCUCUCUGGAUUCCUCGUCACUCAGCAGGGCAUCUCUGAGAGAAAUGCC

- Variants of: B1
- Protocol Description: self-cleavage, relative activity (ratio to wild type); higher = more cleavage; in vitro, sequencing; the parent is a self-cleaving ribozyme
Here the recorded self-cleavage is given for each entry.
Property Label: self-cleavage

>>> recorded_value("A77U G97U")
0.09
>>> recorded_value("U14A U134A")
0.81
>>> recorded_value("U39C A69U")
0.06
>>> recorded_value("G7U U52C")
1.1
>>> recorded_value("U108C C113A")
1.45
>>> recorded_value("G41A A78G")
0.58
>>> recorded_value("U46A U119C")
0.92
>>> recorded_value("U29C U52A")
1.16
>>> recorded_value("G4C U15C")
1.18
>>> recorded_value("U39A G97A")
0.12
>>> recorded_value("U45C A107U")
1.34
>>> recorded_value("C16U U119A")
1.17
>>> recorded_value("U9A A22U")
0.89
>>> recorded_value("U87A A124G")
0.07
>>> recorded_value("U15G G44U")
0.96
>>> recorded_value("U14C C38U")
1.09
>>> recorded_value("C99A A129U")
0.46
>>> recorded_value("U81A A138C")
2.3
>>> recorded_value("U15A U45G")
0.73
>>> recorded_value("U1A A124G")
1.16
>>> recorded_value("G74A G89A")
0.03
>>> recorded_value("C16U A59U")
0.8
>>> recorded_value("A57G G58A")
0.03
>>> recorded_value("U45C G106A")
2
>>> recorded_value("U73C U104A")
1.93
>>> recorded_value("A6G A121G")
1.14
>>> recorded_value("C101U U102C")
1.49
>>> recorded_value("A24U C123U")
1.02
>>> recorded_value("A2U A59G")
0
>>> recorded_value("A117U A129G")
1.69
>>> recorded_value("A117U C131A")
1.27
>>> recorded_value("U87A A107G")
0.1
>>> recorded_value("A43U U62C")
0.06
>>> recorded_value("U104A A141G")
1.43
>>> recorded_value("U14A U96C")
0.04
>>> recorded_value("U29C U119A")
1.21
>>> recorded_value("A50U A94U")
0.27
>>> recorded_value("U39C U62A")
0.04
>>> recorded_value("A22G A136G")
1.17
>>> recorded_value("G11A A64U")
0.3
>>> recorded_value("U100A U119C")
1.23
>>> recorded_value("G10A A77G")
1.31
